target: Neu5Ac(b2-6)GalNAc; assay: glycan array binding signal (z-score within array); higher = stronger binding; details: glycan notation: IUPAC condensed, linker removed
This is one part of a sample in which the strongest signals are shown more often than they occur.

binder | glycan array binding signal (z-score)
Apa (Mycobacterium tuberculosis), Rv1860 (protein) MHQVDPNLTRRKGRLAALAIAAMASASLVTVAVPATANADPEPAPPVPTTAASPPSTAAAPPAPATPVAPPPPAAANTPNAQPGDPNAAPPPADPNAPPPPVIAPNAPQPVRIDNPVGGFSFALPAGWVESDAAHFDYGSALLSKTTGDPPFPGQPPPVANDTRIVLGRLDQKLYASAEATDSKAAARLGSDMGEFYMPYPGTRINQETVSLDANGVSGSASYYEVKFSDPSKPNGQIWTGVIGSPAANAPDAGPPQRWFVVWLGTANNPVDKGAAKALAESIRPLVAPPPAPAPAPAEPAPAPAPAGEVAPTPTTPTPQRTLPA | -0.414
